These data points were gathered from ChEMBL document CHEMBL3813601.

- target_system: Cytochrome P450 3A4 (Homo sapiens)
- Sequence (P08684 whole entry, the tested form may be a part): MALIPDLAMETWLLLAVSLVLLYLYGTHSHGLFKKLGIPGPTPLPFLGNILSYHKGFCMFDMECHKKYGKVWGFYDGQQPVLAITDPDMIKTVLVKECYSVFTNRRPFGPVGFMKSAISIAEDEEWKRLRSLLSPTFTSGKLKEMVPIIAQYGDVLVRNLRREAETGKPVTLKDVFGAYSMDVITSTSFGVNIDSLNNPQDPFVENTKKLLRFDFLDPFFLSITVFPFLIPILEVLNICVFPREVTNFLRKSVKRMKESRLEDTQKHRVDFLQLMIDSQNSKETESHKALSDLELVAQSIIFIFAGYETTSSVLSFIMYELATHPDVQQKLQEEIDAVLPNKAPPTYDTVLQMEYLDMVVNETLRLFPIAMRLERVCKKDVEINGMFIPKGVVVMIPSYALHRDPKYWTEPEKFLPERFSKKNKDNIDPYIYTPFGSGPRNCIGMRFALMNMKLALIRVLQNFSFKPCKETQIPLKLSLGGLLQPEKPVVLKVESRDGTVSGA
- test_method_notes: Inhibition of C-terminal four-histidine tagged human CYP3A4delta3 to 24 residues expressed in Escherichia coli assessed as 7-benzyloxy-4-(trifluoromethyl)coumarin O-debenzylation pretreated 2 mins followed by NADPH addition by fluorometric method in presence of rat cytochrome P450 reductase
- Type: ADME
// NB: equality with 80 µM counts as no; only IC50 strictly below is yes

Reference set, count: 5
- compound_structure_string: "CC(C)(C)OC(=O)N[C@H](CSCCC(=O)NCc1cccnc1)Cc1ccccc1"
  assigned_label: "yes"
- compound_structure_string: "CC(C)(C)OC(=O)N[C@H](CSCCC(=O)NCc1cccnc1)CC1CCCCC1"
  assigned_label: "yes"
- compound_structure_string: "NCCc1cccnc1"
  assigned_label: "no"
- compound_structure_string: "CC(C)(C)OC(=O)N[C@H](CSCCC(=O)NCc1cccnc1)Cc1c[nH]c2ccccc12"
  assigned_label: "yes"
- compound_structure_string: "CC(C)(C)OC(=O)NCCCCCC(=O)NCc1cccnc1"
  assigned_label: "yes"

Okay, now this compound:
// query A record lists NCCCCCC(=O)NCc1cccnc1 . Is its IC50 below 80 µM?
// result no
